Data provenance is paper PMC8869400.

Target: PTP1B (Homo sapiens, UniProt P18031)
Construct: purchased Enzo Life Sciences
Sequence (P18031 1-435): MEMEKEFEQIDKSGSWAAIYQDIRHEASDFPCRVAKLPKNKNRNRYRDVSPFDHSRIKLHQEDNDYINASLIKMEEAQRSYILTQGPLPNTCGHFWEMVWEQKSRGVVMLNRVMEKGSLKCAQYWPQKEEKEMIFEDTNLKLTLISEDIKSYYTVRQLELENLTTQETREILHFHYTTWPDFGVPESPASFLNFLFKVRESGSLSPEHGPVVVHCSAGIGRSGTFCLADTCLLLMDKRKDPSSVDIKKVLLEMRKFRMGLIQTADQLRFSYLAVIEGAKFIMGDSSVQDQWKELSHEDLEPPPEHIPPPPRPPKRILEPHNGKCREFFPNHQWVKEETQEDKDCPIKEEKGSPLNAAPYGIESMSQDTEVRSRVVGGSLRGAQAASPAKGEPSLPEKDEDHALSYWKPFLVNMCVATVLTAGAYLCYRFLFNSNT
Assay: In vitro assay for PTP1B inhibitory activity (pNPP)
Assay type: biochemical
Conditions: mean ± SD of triplicate experiments; read-out: IC50 Values PTP1B
property: IC50

The recorded IC50 for O=c1cc(-c2ccc(O)cc2O)oc2cc(O)cc(O)c12 [Norartocarpetin (6), Norartocarpetin] is > 349 µM
